Data origin: PubChem BioAssay (Tox21)

- ASSAY_DETAILS: Nuclear factor erythroid 2-related factor 2/antioxidant responsive element (Nrf2/ARE) small molecule agonists: luciferase reporter gene qHTS assay in human keratinocytes (AID 1919969); also: nearly all actives have a fitted effect of over 35% in size
- APPLIED_CONDITIONS: KeratinoSens HaCaT ARE-luciferase, luminescence, 24 h; series mostly up to 92.4 µM
Records with an inconclusive call do not appear. Active and inactive are the calls of the source. Calls follow the shape of the full dose curve.
Can you answer with just one of these options? active, inactive

Test call for this compound, please: COC(N)=O
inactive

Test call for this compound, please: CN1C(=S)CN=C(c2ccccc2)c2cc(Cl)ccc21
inactive

Test call for this compound, please: O=[Se]=O
inactive

Test call for this compound, please: CCC(C)c1cc([N+](=O)[O-])cc([N+](=O)[O-])c1OC(=O)C=C(C)C (stereo not drawn)
active

Test call for this compound, please: CC(=O)[O][Sn]([c]1ccccc1)([c]1ccccc1)[c]1ccccc1
active

Test call for this compound, please: CCC1(c2ccccc2)C(=O)N=C(O)NC1=O (stereo not drawn)
inactive

Test call for this compound, please: COC(=O)c1ccccc1S(=O)(=O)NC(=O)Nc1nc(C)nc(OC)n1
inactive

Test call for this compound, please: CC(CC(C#N)(c1ccccc1)c1ccccc1)N(C)C (stereo not drawn)
inactive

Test call for this compound, please: O=C=Nc1ccc(Cl)cc1
active

Test call for this compound, please: O=[N+]([O-])c1cc(Cl)c(Cl)cc1Cl
inactive

Test call for this compound, please: CCOP(=S)(OCC)Oc1ccc(S(C)=O)cc1 (stereo not drawn)
inactive

Test call for this compound, please: O=C(N[C@H]1CN2CCC1CC2)c1ccc2c(c1)OCCO2
inactive

Test call for this compound, please: CCC1(c2cccc(O)c2)CCCCN(C)C1 (stereo not drawn)
inactive
